- Tested on: RPMI-8226 leukemia
- measurement_notes: NCI tumour cell line growth inhibition, 48 h
TGI: recorded values
property_measured: TGI (µM)

>>> df
                                    molecule  property_measured  units_label  value_relation_sign  number
 0  COc1ccccc1CCN=C1NC(=O)/C(=C/c2ccc3ncccc3c2)S1                TGI           µM                    =    19.6
 1   COc1c(OC)c(OC)c2c(c1OC)c(=O)c1ccccc1n2C                TGI           µM                    >     100
 2                       Oc1cc(Br)cc2cccnc12                TGI           µM                    =    5.68
 3  O=C1NC(=O)C2C(=O)NC(=O)C1C2(c1ccccc1)c1cc[nH]c1 (stereo not given)                TGI           µM                    >     100
 4    O=C1SS(=O)c2ccccc21 (stereo not given)                TGI           µM                    >     100
 5  CN(CCCCN1CCCC1)CCCN(C)C(=O)Cc1ccc(Cl)c(Cl)c1                TGI           µM                    =    25.9
 6   [O-][n+]1onc2c1CCC(=N\O)/C2=N/Nc1ccccc1                TGI           µM                    >     100
 7         Cc1cc2nc(CCC(=O)O)c(=O)[nH]c2cc1C                TGI           µM                    >     100
 8  Nc1c2c(=O)[nH]c(=O)c2c(N)c2c(=O)c3ccccc3c(=O)c12                TGI           µM                    =    8.53
 9  COc1ccc(C[C@H](N)C(=O)NC2C(CO)OC(n3cnc4c(N(C)C)ncnc43)C2O)cc1 (stereo not given in full)                TGI           µM                    =     1.3
10  CCOc1ccccc1NC(=O)CC1SC(=Nc2ccc([N+](=O)[O-])cc2)NC1=O (stereo not given)                TGI           µM                    =    28.9
11  O=C(CC(C(=O)c1ccco1)c1ccsc1)c1ccco1 (stereo not given)                TGI           µM                    >     100
12        Nc1nc(Cl)c2ncn(Cc3ccc(CCl)cc3)c2n1                TGI           µM                    >     100
13  Cc1nc2ccc(S(=O)(=O)Nc3ccccc3)cc2c(=O)n1NC(=O)CNc1ccccc1                TGI           µM                    >     100
14  O/C(=C\c1nc2ccccc2nc1/C=C(\O)c1ccc(Cl)cc1)c1ccccc1                TGI           µM                    >     100
